Assignment: determine reported viscosity for the given molecules.
Details: 303.15 K; 101 kPa; Liquid
The reply should be a number in mPa·s, with the unit left off.

What the record says about Cc1ccccc1 [toluene] : viscosity is 0.525

molecule c1ccccc1 [benzene] , viscosity observed: 0.561

// recorded viscosity for C1CCCCC1 [cyclohexane] : 0.821

Notebook: CN1CCCC1=O [N-methylpyrrolidone] , viscosity read as 1.554

====

Settings: 313.15 K; 101 kPa; Liquid
measure.name: viscosity (mPa·s)
The answer is to be given in mPa·s; state only the numeric part.

The recorded viscosity for CN1CCCC1=O [N-methylpyrrolidone] is 1.332

The compound identified as C1CCCCC1 [cyclohexane] registered its viscosity at 0.696

The recorded viscosity for entry Cc1ccccc1 [toluene] equals 0.47

Sure, the documented viscosity for c1ccccc1 [benzene] is 0.493

====

Details: 323.15 K; 101 kPa; Liquid
measure.name: mass density (kg/m3)
All answers are understood in kg/m3, so give the number only.

Record CN1CCCC1=O . Reported mass density: 1005.66

In plain terms, Cc1ccccc1 has a documented mass density of 839.45

mass density reading for c1ccccc1 : 846.65

The recorded mass density for C1CCCCC1 is 749.98

====

For each entry below, report its viscosity value.
Conditions: 333.15 K; 101 kPa; Liquid
Answer with a number only, understood to be in mPa·s.

Record summary for CN1CCCC1=O : reported viscosity = 1.022

The recorded viscosity for entry C1CCCCC1 equals 0.52

// viscosity lookup, molecule = c1ccccc1 , result: 0.388

Lookup result for Cc1ccccc1 ; measured viscosity: 0.385

====

Conditions: 333.15 K; 101 kPa; Liquid
measure.name: mass density (kg/m3)
Could you give me the number in kg/m3? Just the number is fine.

# compound c1ccccc1 ; its mass density = 835.72

Reported mass density of CN1CCCC1=O : 996.71

Briefly, mass density measured for C1CCCCC1 : 740.23

The compound listed as Cc1ccccc1 has a reported mass density of 829.93

====

For each entry below, report its mass density value.
Settings: 303.15 K; 101 kPa; Liquid
± gives the expanded uncertainty stated by the source.
Report as: number unit

Kindly note the recorded mass density for c1ccccc1 , which is 868.21 ± 0.7 kg/m3

// field: mass density; key: C1CCCCC1 ; value = 769.1 ± 0.97 kg/m3

response.value for Cc1ccccc1 (field: mass density) = 858.32 ± 0.76 kg/m3

compound CN1CCCC1=O , mass density observed: 1023.47 ± 0.53 kg/m3

Origin of the recorded values: the NIST ThermoML archive (doi:10.1016/j.jct.2006.06.005)
